system tested: T1, IL-10R1-Fc (UniProt Q13651 22-235, limits assumed)
T1 sequence (looked up): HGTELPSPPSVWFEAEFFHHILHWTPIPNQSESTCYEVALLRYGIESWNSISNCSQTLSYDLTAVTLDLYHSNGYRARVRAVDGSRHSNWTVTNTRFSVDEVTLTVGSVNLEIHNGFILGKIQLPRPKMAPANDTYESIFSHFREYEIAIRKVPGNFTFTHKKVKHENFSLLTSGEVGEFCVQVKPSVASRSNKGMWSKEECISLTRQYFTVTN
protocol description: ELISA, IL-10R1-Fc coated
endpoint label: Decreased fold of binding to ligand after Conjugating with S48 (fold)

IL-10 Met140Cys-S48 (ligand, human, UniProt P22301 19-178, looked up, S48 on Cys 140, mature) SPGQGTQSENSCTHFPGNLPNMLRDLRDAFSRVKTFFQMKDQLDNLLLKESLLEDFKGYLGCQALSEMIQFYLEEVMPQAENQDPDIKAHVNSLGENLKTLRLRLRRCHRFLPCENKSKAVEQVKNAFNKLQEKGIYKACSEFDIFINYIEAYMTMKIRN = 3
IL-10 Lys157Cys-S48 (ligand, human, UniProt P22301 19-178, looked up, S48 on Cys 157, mature) SPGQGTQSENSCTHFPGNLPNMLRDLRDAFSRVKTFFQMKDQLDNLLLKESLLEDFKGYLGCQALSEMIQFYLEEVMPQAENQDPDIKAHVNSLGENLKTLRLRLRRCHRFLPCENKSKAVEQVKNAFNKLQEKGIYKAMSEFDIFINYIEAYMTMCIRN = 3
IL-10 Leu26Cys-S48 (ligand, human, UniProt P22301 19-178, looked up, S48 on Cys 26, mature) SPGQGTQSENSCTHFPGNLPNMLRDCRDAFSRVKTFFQMKDQLDNLLLKESLLEDFKGYLGCQALSEMIQFYLEEVMPQAENQDPDIKAHVNSLGENLKTLRLRLRRCHRFLPCENKSKAVEQVKNAFNKLQEKGIYKAMSEFDIFINYIEAYMTMKIRN = 3
IL-10 Leu131Cys-S48 (ligand, human, UniProt P22301 19-178, looked up, S48 on Cys 131, mature) SPGQGTQSENSCTHFPGNLPNMLRDLRDAFSRVKTFFQMKDQLDNLLLKESLLEDFKGYLGCQALSEMIQFYLEEVMPQAENQDPDIKAHVNSLGENLKTLRLRLRRCHRFLPCENKSKAVEQVKNAFNKCQEKGIYKAMSEFDIFINYIEAYMTMKIRN = 5
IL-10 Lys130Cys-S48 (ligand, human, UniProt P22301 19-178, looked up, S48 on Cys 130, mature) SPGQGTQSENSCTHFPGNLPNMLRDLRDAFSRVKTFFQMKDQLDNLLLKESLLEDFKGYLGCQALSEMIQFYLEEVMPQAENQDPDIKAHVNSLGENLKTLRLRLRRCHRFLPCENKSKAVEQVKNAFNCLQEKGIYKAMSEFDIFINYIEAYMTMKIRN = 3
IL-10 Ser11Cys-S48 (ligand, human, UniProt P22301 19-178, looked up, S48 on Cys 11, mature) SPGQGTQSENCCTHFPGNLPNMLRDLRDAFSRVKTFFQMKDQLDNLLLKESLLEDFKGYLGCQALSEMIQFYLEEVMPQAENQDPDIKAHVNSLGENLKTLRLRLRRCHRFLPCENKSKAVEQVKNAFNKLQEKGIYKAMSEFDIFINYIEAYMTMKIRN = 9
IL-10 Lys134Cys-S48 (ligand, human, UniProt P22301 19-178, looked up, S48 on Cys 134, mature) SPGQGTQSENSCTHFPGNLPNMLRDLRDAFSRVKTFFQMKDQLDNLLLKESLLEDFKGYLGCQALSEMIQFYLEEVMPQAENQDPDIKAHVNSLGENLKTLRLRLRRCHRFLPCENKSKAVEQVKNAFNKLQECGIYKAMSEFDIFINYIEAYMTMKIRN = 5

These data points were gathered from patent US20230158141A1.
